Biological target: Dimer of Gag-Pol polyprotein [489-587] (Human immunodeficiency virus 1)
Construct: 489-587
Experiment: Protease Inhibition Assay
Details: pH 5; 22 °C
Property Label: Ki (nM)
Please reply with the bare figure in nM and do not write the unit itself.

Field request: Ki | item: CCCCC(c1ccccc1)c1c(O)c2c(oc1=O)CCCCCC2 (stereo not given)
62

Field request: Ki | item: CC(C)C(c1ccccc1)c1c(O)c2c(oc1=O)CCCCCC2 (stereo not given)
22

Field request: Ki | item: CCCC(c1ccccc1)c1c(O)c2c(oc1=O)CCCCCC2 (stereo not given)
29

Field request: Ki | item: `O=c1oc2c(c(O)c1C(c1ccccc1)c1ccccc1)CCCCCC2`
180

Field request: Ki | item: CC(C)CC(c1ccccc1)c1c(O)c2c(oc1=O)CCCCCC2 (stereo not given)
90
